B1: Twister Ribozyme (parent)
chain: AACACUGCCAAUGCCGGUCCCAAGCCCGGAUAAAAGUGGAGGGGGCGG

# Variants of: B1
# PROCEDURE TEXT: self-cleavage, relative activity (ratio to wild type); higher = more cleavage; co-transcriptional
Category | rule: reported self-cleavage within range, see low: < 0.1; intermediate: ≥ 0.1 and < 0.6; high: ≥ 0.6

Reference set (3 entries):
>>> print(df.to_string())
   variant_name  discrete_label
0      A2C G42U             low
1     A10U C26G    intermediate
2      C5A G13A    intermediate

Now for another entry.
Which class holds U6G A30C ?
intermediate
